Assay: in vivo
Details: swiss nude, mouse, tumor, iv
Numbered stars: 1 amine (or outer) side, 2 acyl side, 3 side chain; on linkers, the order of the positions; unused ones are H or OH. Bridge positions count the residues as written; N and C are the ends. Square brackets hold non-standard residues; d marks the D form. Peptide text beside a SMILES is read from it. * marks the point of attachment. ξ: configuration not given here. X1 = NCCNCC(CNCCN)C(=O)N1CCN(CC(=O)NCCCOCCOCCOCCCN*)CC1; Pyridine(3,5-bisCH2) = c1ncc(C[*:2])cc1C[*:1]; mXylylene = c1cc(C[*:1])cc(C[*:2])c1; PEG6 = NCCOCCOCCOCCOCCOCCOCCC(=O)O; Suc = O=C(CCC(=O)[*:2])[*:1]; Nle = CCCC[C@H](N)C(=O)O; X2 = NCCNCC(CNCCN)C(=O)*; ξC = NC(CS)C(=O)O; βAla = NCCC(=O)O
Response field label: string, one of Yes (tissue uptake at 1 h strictly below 6 %ID/g) or No.

COMPOUND	ASSIGNED_CLASS
CCCC[C@H](NC(=O)CCC(=O)NCCCOCCOCCOCCCNC(=O)CN1CCN(C(=O)C(CNCCN)CNCCN)CC1)C(=O)N[C@H]1CSCc2cccc(c2)CSC[C@@H](C(=O)NCCC(=O)O)NC(=O)[C@H](Cc2ccccc2)NC(=O)[C@H](CCC(=O)O)NC(=O)[C@H]([C@@H](C)O)NC(=O)[C@@H]2CCCN2C(=O)[C@@H]2CCCN2C1=O [3BP-4784] ({X1-Suc}-[Nle]CPPTEFC[βAla]-OH; linker 2-8 via mXylylene)	No
CCCCNC(=O)N[C@H]1CSCc2cc(CSCCNC(=O)C(CNCCN)CNCCN)cc(c2)CSC[C@@H](C(=O)O)NC(=O)[C@H](Cc2ccccc2)NC(=O)[C@H](CCC(N)=O)NC(=O)[C@H]([C@@H](C)O)NC(=O)[C@@H]2CCCN2C(=O)[C@@H]2CCCN2C1=O [3BP-4534]	Yes
CCCC[C@H](NC(=O)CCC(=O)NCCCOCCOCCOCCCNC(=O)CN1CCN(C(=O)C(CNCCN)CNCCN)CC1)C(=O)N[C@H]1CSCc2cccc(c2)CSCC(C(=O)O)NC(=O)[C@H](Cc2ccccc2)NC(=O)[C@H](CCC(N)=O)NC(=O)[C@H]([C@@H](C)O)NC(=O)[C@@H]2CCCN2C(=O)[C@@H]2CCCN2C1=O (stereo partly shown) [3BP-4541]	No
CCCCNC(=O)N[C@H]1CSCc2cc(cc(CN3CCN(C(=O)C(CNCCN)CNCCN)CC3)c2)CSC[C@@H](C(=O)O)NC(=O)[C@H](Cc2ccccc2)NC(=O)[C@H](CCC(N)=O)NC(=O)[C@H]([C@@H](C)O)NC(=O)[C@@H]2CCCN2C(=O)[C@@H]2CCCN2C1=O [3BP-4533]	Yes

Please let me know if CCCC[C@H](NC(=O)CCOCCOCCOCCOCCOCCOCCNC(=O)C(CNCCN)CNCCN)C(=O)N[C@H]1CSCc2cncc(c2)CSCC(C(=O)O)NC(=O)[C@H](Cc2ccccc2)NC(=O)[C@H](CCC(=O)O)NC(=O)[C@H]([C@@H](C)O)NC(=O)[C@@H]2CCCN2C(=O)[C@@H]2CCCN2C1=O (stereo partly shown) [3BP-4773] ({X2-PEG6}-[Nle]CPPTEF[ξC]-OH; linker 2-8 via Pyridine(3,5-bisCH2)) shows tissue uptake at 1 h below 6 %ID/g. No

Data provenance is patent US20230212549A1.
